# Test system: Rhipicephalus (Boophilus) microplus
# Assay name: In vitro injection test with Rhipicephalus (Boophilus) microplus (BOOPMI Inj)
# Stated conditions: 168 h, dose 0.8 μg/animal injected, laid fertile eggs after 7 days, read-out: acaricidal activity

Smiles: CN(C(=O)c1ccc(C#N)nc1)c1cccc(C(=O)Nc2c(Br)cc(C(F)(C(F)(F)F)C(F)(F)F)cc2C(F)(F)F)c1
pest or weed control at 0.0008 mg, %: 100
//
Smiles: CN(C(=O)c1ccc(S(C)(=O)=O)cc1)c1cccc(C(=O)Nc2c(Br)cc(C(F)(C(F)(F)F)C(F)(F)F)cc2C(F)(F)F)c1
pest or weed control at 0.0008 mg, %: 100
//
Smiles: CN(C(=O)c1ccc(C#N)cc1)c1cccc(C(=O)Nc2c(Br)cc(C(F)(C(F)(F)F)C(F)(F)F)cc2OC(F)(F)F)c1
pest or weed control at 0.0008 mg, %: 100

###

# System: Ctenocephalides felis
# Assay name: Systemic treatment in-vivo test with cat flea on rats
# Stated conditions: Ctenocephalides felis, ip, intraperitoneal injection, 10 mg/kg, SD 9, read-out: Geometric mean percent reduction in live flea (Ctenocephalides felis) counts compared to untreated control rats
The entries below are paired with their reported inhibition in vivo at 10 mg/kg.
Readout name: inhibition in vivo at 10 mg/kg (%)

Compound: CN(C(=O)c1ccc(F)nc1)c1cccc(C(=O)Nc2c(I)cc(C(F)(C(F)(F)F)C(F)(F)F)cc2C(F)(F)F)c1F [Compound 115]
Target of assay: Ctenocephalides felis
Readout name: inhibition in vivo at 10 mg/kg
Reported: 100

Compound: O=C(Nc1cccc(C(=O)Nc2c(I)cc(C(F)(C(F)(F)F)C(F)(F)F)cc2C(F)(F)F)c1F)c1ccc(C(F)(F)F)nc1 [Compound 67]
Target of assay: Ctenocephalides felis
Readout name: inhibition in vivo at 10 mg/kg
Reported: 100

Compound: CN(C(=O)c1ccc(F)cc1)c1cccc(C(=O)Nc2c(I)cc(C(F)(C(F)(F)F)C(F)(F)C(F)(F)F)cc2OC(F)F)c1F (centres unmarked) [Compound 103]
Target of assay: Ctenocephalides felis
Readout name: inhibition in vivo at 10 mg/kg
Reported: 92

Compound: CN(C(=O)c1ccc(F)cc1)c1cccc(C(=O)Nc2c(I)cc(C(F)(C(F)(F)F)C(F)(F)C(F)(F)F)cc2C(F)(F)F)c1F (centres unmarked) [Compound 37]
Target of assay: Ctenocephalides felis
Readout name: inhibition in vivo at 10 mg/kg
Reported: 97

Compound: CN(C(=O)c1ccc(F)cc1)c1cccc(C(=O)Nc2c(I)cc(C(F)(C(F)(F)F)C(F)(F)F)cc2S(=O)(=O)C(F)(F)F)c1F [Compound 70]
Target of assay: Ctenocephalides felis
Readout name: inhibition in vivo at 10 mg/kg
Reported: 100

Compound: CN(C(=O)c1ccc(F)cc1)c1cccc(C(=O)Nc2c(I)cc(C(F)(C(F)(F)F)C(F)(F)F)cc2OC(F)(F)F)c1F [Compound 74]
Target of assay: Ctenocephalides felis
Readout name: inhibition in vivo at 10 mg/kg
Reported: 96

Compound: CN(C(=O)c1ccc(C(F)(F)F)nc1)c1cccc(C(=O)Nc2c(I)cc(C(F)(C(F)(F)F)C(F)(F)C(F)(F)F)cc2C(F)(F)F)c1F (centres unmarked) [Compound 119]
Target of assay: Ctenocephalides felis
Readout name: inhibition in vivo at 10 mg/kg
Reported: 97

Compound: CN(C(=O)c1ccccc1)c1cccc(C(=O)Nc2c(Br)cc(C(F)(C(F)(F)F)C(F)(F)F)cc2C(F)(F)F)c1F [Compound (B), reference compound]
Target of assay: Ctenocephalides felis
Readout name: inhibition in vivo at 10 mg/kg
Reported: 53

Compound: CN(C(=O)c1ccc(F)c(F)c1)c1cccc(C(=O)Nc2c(I)cc(C(F)(C(F)(F)F)C(F)(F)F)cc2C(F)(F)F)c1F [Compound 51]
Target of assay: Ctenocephalides felis
Readout name: inhibition in vivo at 10 mg/kg
Reported: 100

Compound: CN(C(=O)c1ccc(C(F)(F)F)nc1)c1cccc(C(=O)Nc2c(I)cc(C(F)(C(F)(F)F)C(F)(F)F)cc2C(F)(F)F)c1F [Compound 66]
Target of assay: Ctenocephalides felis
Readout name: inhibition in vivo at 10 mg/kg
Reported: 100

Compound: CN(C(=O)c1ccc(F)cc1)c1cccc(C(=O)Nc2c(Br)cc(C(F)(C(F)(F)F)C(F)(F)C(F)(F)F)cc2C(F)(F)F)c1F (centres unmarked) [Compound 93]
Target of assay: Ctenocephalides felis
Readout name: inhibition in vivo at 10 mg/kg
Reported: 97

###

# System: Ctenocephalides felis
# Assay name: In vitro contact test with fleas
# Stated conditions: dose 0.2 μg/cm^2, dead or moribund fleas after 48 h, read-out: insecticidal activity
The entries below are paired with their reported pest or weed control at 0.2 µg/cm2, 0.2 µg/cm2.
Readout name: pest or weed control at 0.2 µg/cm2, 0.2 µg/cm2 (%)

Smiles: O=C(Nc1c(I)cc(C(F)(C(F)(F)F)C(F)(F)F)cc1C(F)(F)F)c1cccc(NC(=O)c2cc(F)c(F)cc2Cl)c1
Result units: %
Reported: 95

Smiles: N#Cc1ccc(C(=O)Nc2cccc(C(=O)Nc3c(Br)cc(C(F)(C(F)(F)F)C(F)(F)F)cc3C(F)(F)F)c2)cc1
Result units: %
Reported: 95

Smiles: O=C(Nc1cccc(C(=O)Nc2c(Br)cc(C(F)(C(F)(F)F)C(F)(F)F)cc2OC(F)(F)F)c1F)c1ccc(F)c(F)c1
Result units: %
Reported: 95

###

The entries below are paired with their reported pest or weed control at 1 µg/cm2, 1 µg/cm2.
# System: Dermacentor variabilis
# Assay name: In vitro contact test with adult hard ticks (Dermacentor variabilis)
# Stated conditions: dose 1 μg/cm^2, 48 h, read-out: acaricidal activity
Readout name: pest or weed control at 1 µg/cm2, 1 µg/cm2 (%)

Compound: N#Cc1ccc(C(=O)Nc2cccc(C(=O)Nc3c(I)cc(C(F)(C(F)(F)F)C(F)(F)C(F)(F)F)cc3C(F)(F)F)c2F)cc1 (stereo not drawn) [Compound 34]
Reported: 90

Compound: CN(C(=O)c1ccc([N+](=O)[O-])cc1)c1cccc(C(=O)Nc2c(Br)cc(C(F)(C(F)(F)F)C(F)(F)F)cc2C(F)(F)F)c1 [Compound 5]
Reported: 90

Compound: CN(C(=O)c1ccc(F)c(F)c1)c1cccc(C(=O)Nc2c(I)cc(C(F)(C(F)(F)F)C(F)(F)C(F)(F)F)cc2C(F)(F)F)c1F (stereo not drawn) [Compound 77]
Reported: 90

###

# Test system: Ixodes ricinus
# Assay name: In vitro contact test with adult hard ticks (Ixodes ricinus)
# Stated conditions: dose 0.2 μg/cm^2, 48 h, read-out: acaricidal activity
Readout name: pest or weed control at 0.2 µg/cm2, 0.2 µg/cm2 (%)

Compound: O=C(Nc1cccc(C(=O)Nc2c(I)cc(C(F)(C(F)(F)F)C(F)(F)F)cc2OC(F)F)c1F)c1ccc(F)c(F)c1
Result units: %
Reported: 90
//
Compound: O=C(Nc1cccc(C(=O)Nc2c(I)cc(C(F)(C(F)(F)F)C(F)(F)F)cc2C(F)(F)F)c1F)c1ccc(C(F)(F)F)nc1
Result units: %
Reported: 90
//
Compound: O=C(Nc1cccc(C(=O)Nc2c(I)cc(C(F)(C(F)(F)F)C(F)(F)C(F)(F)F)cc2C(F)(F)F)c1F)c1ccc(F)cc1 (stereo not drawn)
Result units: %
Reported: 90

###

# Tested on: Dermacentor variabilis
# Assay name: Systemic treatment in-vivo test with American dog tick nymph on rats
# Stated conditions: Dermacentor variabilis, ip, intraperitoneal injection, 10 mg/kg, SD 16, read-out: Geometric mean percent reduction in live tick (Dermacentor variabilis) counts compared to untreated control rats

Compound: CN(C(=O)c1ccc(F)cc1)c1cccc(C(=O)Nc2c(I)cc(C(F)(C(F)(F)F)C(F)(F)F)cc2OC(F)(F)F)c1F [Compound 74]
inhibition in vivo at 10 mg/kg [%]: 90
//
Compound: CN(C(=O)c1ccc(F)cc1)c1cccc(C(=O)Nc2c(I)cc(C(F)(C(F)(F)F)C(F)(F)C(F)(F)F)cc2C(F)(F)F)c1F (centres unmarked) [Compound 37]
inhibition in vivo at 10 mg/kg [%]: 99
//
Compound: CN(C(=O)c1ccc(F)nc1)c1cccc(C(=O)Nc2c(I)cc(C(F)(C(F)(F)F)C(F)(F)F)cc2C(F)(F)F)c1F [Compound 115]
inhibition in vivo at 10 mg/kg [%]: 86
//
Compound: CN(C(=O)c1ccc(C(F)(F)F)nc1)c1cccc(C(=O)Nc2c(I)cc(C(F)(C(F)(F)F)C(F)(F)F)cc2C(F)(F)F)c1F [Compound 66]
inhibition in vivo at 10 mg/kg [%]: 100
//
Compound: O=C(Nc1cccc(C(=O)Nc2c(I)cc(C(F)(C(F)(F)F)C(F)(F)F)cc2C(F)(F)F)c1F)c1ccc(C(F)(F)F)nc1 [Compound 67]
inhibition in vivo at 10 mg/kg [%]: 99
//
Compound: CN(C(=O)c1ccc(C(F)(F)F)nc1)c1cccc(C(=O)Nc2c(I)cc(C(F)(C(F)(F)F)C(F)(F)C(F)(F)F)cc2C(F)(F)F)c1F (centres unmarked) [Compound 119]
inhibition in vivo at 10 mg/kg [%]: 100
//
Compound: CN(C(=O)c1ccccc1)c1cccc(C(=O)Nc2c(Br)cc(C(F)(C(F)(F)F)C(F)(F)F)cc2C(F)(F)F)c1F [Compound (B), reference compound]
inhibition in vivo at 10 mg/kg [%]: 2
//
Compound: CN(C(=O)c1ccc(F)cc1)c1cccc(C(=O)Nc2c(I)cc(C(F)(C(F)(F)F)C(F)(F)C(F)(F)F)cc2OC(F)F)c1F (centres unmarked) [Compound 103]
inhibition in vivo at 10 mg/kg [%]: 74

Reference source: patent US11696913B2
